# Target or system: human KHK-A (Homo sapiens (Human), UniProt P50053)
# Sequence (P50053 other isoform, or with tags, fused parts or gaps): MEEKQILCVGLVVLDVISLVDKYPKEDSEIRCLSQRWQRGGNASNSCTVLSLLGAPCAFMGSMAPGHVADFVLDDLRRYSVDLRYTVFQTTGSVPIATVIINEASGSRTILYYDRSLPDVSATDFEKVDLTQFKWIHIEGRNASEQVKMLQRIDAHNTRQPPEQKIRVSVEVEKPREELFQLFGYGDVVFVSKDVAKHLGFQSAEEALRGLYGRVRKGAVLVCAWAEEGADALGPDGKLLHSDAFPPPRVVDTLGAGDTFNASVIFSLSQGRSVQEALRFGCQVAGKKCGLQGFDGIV
# Test summary: KHK Biochemical Assay (IC50), ADP-Glo, KHK-A
# Run conditions: ADP-Glo; average of at least two separate assays
Recorded metric: IC50 (nM)

Q: So what's the measured IC50 for this one? CC1Cc2cc(-c3nc(N4CC[C@@H]4C)nc4c3CCC4)ccc2C1NS(C)(=O)=O (some centres unmarked) [Example 891]
Ans: 167

Q: Cool, now CCc1cc(-c2nc(N3CC[C@@H]3C)nc3c2CCC3)ccc1C1(N)COC1 [Example 864]
Ans: 10

Q: Cool, now C[C@H]1CCN1c1nc2c(c(-c3ccc4c(c3)S(=O)(=O)NC4)n1)CCC2 [Example 72]
Ans: 18

[I] C[C@H]1CCN1c1nc2c(c(-c3ccc4cnc(O)cc4c3)n1)CCC2 [Example 380]
[II] C[C@H]1CCN1c1nc2c(c(-c3cccc(-c4nnn[nH]4)c3)n1)CCC2 [Example 876]
Q: Which gives the smaller IC50 number: I or II ? Write down the label attached to your selection.
Ans: I
(I: 13 nM, II: 70.4 nM)

[I] CC1CCc2c(-c3ccccc3)nc(N3CC[C@@H]3C)nc21 (some centres unmarked) [Example 336]
[II] NC1(c2ccc(-c3nc(N4CC[C@@H]4C(F)F)nc4c3CCC4(F)F)cc2)CS(=O)(=O)C1 (single isomer, unassigned) [Example 800]
Q: Which gives the smaller IC50 number: I or II ? Write down the label attached to your selection.
Ans: II
(II: 7.8 nM, I: 13200 nM)
